Overview of reported helicity across a group of substances:
# assay_protocol: circular dichroism
# measurement_setup: aqueous, '0% TFE' (buffer not stated; general: 50 mM potassium phosphate pH 7 or water); pH ns; ns °C; 25-50 uM (general text)
// units = %; emit number, no label

Input: Tell me measured helicity for Ac-TSFAEYWNLLSP-NH2 please.
Output: 6.8

Input: In one line, give reported helicity of the entry Ac-MPRFMDYWEGLN-NH2 .
Output: 7.5

Input: Note down helicity recorded for Ac-QTFEHWWSQLLS-NH2
Output: 21.6

Input: Consider the substance Ac-QSQQTFSNLWRLLPQN-NH2 and give its recorded helicity.
Output: 5

###

# assay_protocol: circular dichroism
# measurement_setup: aqueous, '0% TFE' (buffer not stated; general: 50 mM potassium phosphate pH 7 or water); pH ns; ns °C; 25-50 uM (general text)
Square brackets hold non-standard residues; d marks the D form. Peptide text beside a SMILES is read from it. Trp(6-Cl) = N[C@@H](Cc1c[nH]c2cc(Cl)ccc12)C(=O)O; Ac3c = NC1(C(=O)O)CC1; Aib = CC(C)(N)C(=O)O
property_measured: helicity (%)
Answer in %, number only, no unit symbol.

molecule | quantity_unit | helicity
CC(=O)N[C@@H](CC(C)C)C(=O)N[C@H](C(=O)N[C@@H](Cc1ccccc1)C(=O)N[C@]1(C)CCCCCCCCCCC[C@@](C)(C(=O)N[C@@H](CO)C(=O)N[C@@H](C)C(N)=O)NC(=O)[C@H](CC(C)C)NC(=O)[C@H](CCC(N)=O)NC(=O)[C@H](C)NC(=O)[C@H](Cc2c[nH]c3ccccc23)NC(=O)[C@H](Cc2ccc(O)cc2)NC(=O)[C@H](Cc2c[nH]cn2)NC1=O)[C@@H](C)O | % | 78.4
CC(=O)N[C@@H](CCC(N)=O)C(=O)N[C@@H](CO)C(=O)N[C@@H](CCC(N)=O)C(=O)N[C@@H](CCC(N)=O)C(=O)N[C@H](C(=O)N[C@@H](Cc1ccccc1)C(=O)N[C@]1(C)CCCCCCCCCCC[C@@](C)(C(=O)N[C@@H](CCC(N)=O)C(=O)N[C@@H](CC(N)=O)C(N)=O)NC(=O)[C@H](CC(C)C)NC(=O)[C@H](CC(C)C)NC(=O)[C@H](CCCNC(=N)N)NC(=O)[C@H](Cc2c[nH]c3cc(Cl)ccc23)NC(=O)[C@H](CC(C)C)NC(=O)[C@H](CC(N)=O)NC1=O)[C@@H](C)O | % | 92.4
CSCC[C@H](NC(=O)[C@H](Cc1ccccc1)NC(C)=O)C(=O)NC(C)(C)C(=O)N[C@@H](Cc1ccc(O)cc1)C(=O)N[C@@H](Cc1c[nH]c2cc(Cl)ccc12)C(=O)N[C@@H](CCC(=O)O)C(=O)NC1(C(=O)N[C@@H](CC(C)C)C(N)=O)CC1 (Ac-FM[Aib]Y[Trp(6-Cl)]E[Ac3c]L-NH2) | % | -3.6
CCCC[C@@H]1NC(=O)[C@H](CCCNC(=N)N)NC(=O)[C@H](Cc2c[nH]c3ccccc23)NC(=O)[C@H](CC(C)C)NC(=O)[C@H](CC(N)=O)NC(=O)[C@](C)(NC(=O)[C@H](Cc2ccccc2)NC(=O)[C@@H](NC(=O)[C@H](CCC(N)=O)NC(=O)[C@H](CCC(N)=O)NC(=O)[C@H](CO)NC(=O)[C@H](CCC(N)=O)NC(C)=O)[C@@H](C)O)CCCCCCCCCCC[C@@](C)(C(=O)N[C@@H](CCC(N)=O)C(=O)N[C@@H](CC(N)=O)C(N)=O)NC(=O)[C@H](CC(C)C)NC1=O | % | 84.7
CC(=O)N[C@@H](CC(C)C)C(=O)N[C@H](C(=O)N[C@@H](Cc1ccccc1)C(=O)N[C@]1(C)CCCCCCCCCCC[C@@](C)(C(=O)N[C@@H](CO)C(N)=O)NC(=O)[C@H](CC(C)C)NC(=O)[C@H](CCC(N)=O)NC(=O)[C@H](C)NC(=O)[C@H](Cc2c[nH]c3cc(Cl)ccc23)NC(=O)[C@H](Cc2ccc(O)cc2)NC(=O)[C@H](Cc2c[nH]cn2)NC1=O)[C@@H](C)O | % | 69.5

Input: Fill in reported helicity for this entry: CC(=O)N[C@@H](CC(C)C)C(=O)N[C@H](C(=O)N[C@@H](Cc1ccccc1)C(=O)N[C@]1(C)CCCCCCC=CCCC[C@@](C)(C(=O)N[C@@H](CO)C(=O)N[C@@H](C)C(N)=O)NC(=O)[C@H](CC(C)C)NC(=O)[C@H](CCC(N)=O)NC(=O)[C@H](C)NC(=O)[C@H](Cc2c[nH]c3ccccc23)NC(=O)[C@H](Cc2ccc(O)cc2)NC(=O)[C@H](Cc2c[nH]cn2)NC1=O)[C@@H](C)O
Output: 80.8

Input: Give reported helicity value for CC(=O)N[C@@H](CC(C)C)C(=O)N[C@H](C(=O)N[C@@H](Cc1ccccc1)C(=O)N[C@@H](CCC(=O)O)C(=O)N[C@@H](Cc1c[nH]cn1)C(=O)N[C@@H](Cc1ccc(O)cc1)C(=O)N[C@@H](Cc1c[nH]c2ccccc12)C(=O)N[C@@H](C)C(=O)N[C@@H](CCC(N)=O)C(=O)N[C@@H](CC(C)C)C(=O)N[C@H](C(=O)N[C@@H](CO)C(N)=O)[C@@H](C)O)[C@@H](C)O
Output: -0.5

###

# assay_protocol: circular dichroism
# measurement_setup: aqueous, '0% TFE' (buffer not stated; general: 50 mM potassium phosphate pH 7 or water); pH ns; ns °C; 25-50 uM (general text)
Bridge positions count the residues as written; N and C are the ends. Square brackets hold non-standard residues; d marks the D form. Peptide text beside a SMILES is read from it. R8 = C=CCCCCCC[C@@](C)(N)C(=O)O; S5 = C=CCCC[C@](C)(N)C(=O)O; Nle = CCCC[C@H](N)C(=O)O
property_measured: helicity (%)
The reply should be a number in %, with the unit left off.

Here's what some known entries look like.
compound | property_measured | measured_result
CC(=O)N[C@@H](CC(C)C)C(=O)N[C@H](C(=O)N[C@@H](Cc1ccccc1)C(=O)N[C@]1(C)CCCCCCCCCCC[C@@](C)(C(=O)N[C@@H](CO)C(N)=O)NC(=O)[C@H](CC(C)C)NC(=O)[C@H](CCC(N)=O)NC(=O)[C@H](CCCNC(=N)N)NC(=O)[C@H](Cc2c[nH]c3cc(Cl)ccc23)NC(=O)[C@H](Cc2ccc(O)cc2)NC(=O)[C@H](Cc2c[nH]cn2)NC1=O)[C@@H](C)O | helicity | 74.2
CC(=O)N[C@@H](CC(C)C)C(=O)N[C@H](C(=O)N[C@@H](Cc1ccccc1)C(=O)N[C@]1(C)CCCCCCC=CCCC[C@@](C)(C(=O)N[C@@H](CO)C(N)=O)NC(=O)[C@H](CC(C)C)NC(=O)[C@H](CCC(N)=O)NC(=O)[C@H](CCCNC(=N)N)NC(=O)[C@H](Cc2c[nH]c3ccccc23)NC(=O)[C@H](Cc2ccc(O)cc2)NC(=O)[C@H](Cc2c[nH]cn2)NC1=O)[C@@H](C)O (Ac-LTF[R8]HYWRQL[S5]S-NH2; staple 4-11) | helicity | 59.5
C=CCCCCCC[C@@](C)(NC(=O)[C@H](Cc1ccccc1)NC(=O)[C@@H](NC(=O)[C@H](CCC(N)=O)NC(=O)[C@H](CCC(N)=O)NC(=O)[C@H](CO)NC(=O)[C@H](CCC(N)=O)NC(C)=O)[C@@H](C)O)C(=O)N[C@@H](CC(N)=O)C(=O)N[C@@H](CC(C)C)C(=O)N[C@@H](Cc1c[nH]c2ccccc12)C(=O)N[C@@H](CCCNC(=N)N)C(=O)N[C@@H](CC(C)C)C(=O)N[C@@H](CC(C)C)C(=O)N[C@@](C)(CCCC=C)C(=O)N[C@@H](CCC(N)=O)C(=O)N[C@@H](CC(N)=O)C(N)=O | helicity | 55

Input: State its helicity for this compound: CCCC[C@H](NC(C)=O)C(=O)N1CCC[C@H]1C(=O)N[C@@H](CCCNC(=N)N)C(=O)N[C@@H](Cc1ccccc1)C(=O)N[C@]1(C)CCCCCCC=CCCC[C@@](C)(C(=O)N[C@@H](CCC(N)=O)C(=O)N[C@@H](CC(N)=O)C(N)=O)NC(=O)[C@H](CC(C)C)NC(=O)[C@H](CC(C)C)NC(=O)[C@H](CCCNC(=N)N)NC(=O)[C@H](Cc2c[nH]c3ccccc23)NC(=O)[C@H](Cc2ccc(O)cc2)NC(=O)[C@H](CC(N)=O)NC1=O (Ac-[Nle]PRF[R8]NYWRLL[S5]QN-NH2; staple 5-12)
Output: 62.6

###

# assay_protocol: circular dichroism
# measurement_setup: aqueous, '0% TFE' (buffer not stated; general: 50 mM potassium phosphate pH 7 or water); pH ns; ns °C; 25-50 uM (general text)
Bridge positions count the residues as written; N and C are the ends. Square brackets hold non-standard residues; d marks the D form. Peptide text beside a SMILES is read from it. R8 = C=CCCCCCC[C@@](C)(N)C(=O)O; S5 = C=CCCC[C@](C)(N)C(=O)O; Nle = CCCC[C@H](N)C(=O)O
# helicity >= 60% gives y, anything below gives n

compound | class_name
CC(=O)N[C@@H](CCCNC(=N)N)C(=O)N[C@@H](CO)C(=O)N[C@@H](CCC(N)=O)C(=O)N[C@@H](CCC(N)=O)C(=O)N[C@H](C(=O)N[C@@H](Cc1ccccc1)C(=O)N[C@]1(C)CCCCCCC=CCCC[C@@](C)(C(=O)N[C@@H](CCC(N)=O)C(=O)N[C@@H](CC(N)=O)C(N)=O)NC(=O)[C@H](CC(C)C)NC(=O)[C@H](CC(C)C)NC(=O)[C@H](CCCNC(=N)N)NC(=O)[C@H](Cc2c[nH]c3ccccc23)NC(=O)[C@H](CC(C)C)NC(=O)[C@H](CC(N)=O)NC1=O)[C@@H](C)O (Ac-RSQQTF[R8]NLWRLL[S5]QN-NH2; staple 7-14) | y
CC(=O)N[C@@H](C)C(=O)N[C@@H](C)C(=O)N[C@@H](C)C(=O)N[C@@H](CCCNC(=N)N)C(=O)N[C@@H](C)C(=O)N[C@@H](C)C(=O)N[C@]1(C)CCCCCCC=CCCC[C@@](C)(C(=O)N[C@@H](C)C(=O)N[C@@H](C)C(N)=O)NC(=O)[C@H](C)NC(=O)[C@H](C)NC(=O)[C@H](CCCNC(=N)N)NC(=O)[C@H](C)NC(=O)[C@H](C)NC(=O)[C@H](C)NC1=O (Ac-AAARAA[R8]AAARAA[S5]AA-NH2; staple 7-14) | y
CCCC[C@H](NC(C)=O)C(=O)N1CCC[C@H]1C(=O)N[C@@H](CCCNC(=N)N)C(=O)N[C@@H](Cc1ccccc1)C(=O)N[C@]1(C)CCCCCCC=CCCC[C@@](C)(C(N)=O)NC(=O)[C@H](CC(C)C)NC(=O)[C@H](CC(C)C)NC(=O)[C@H](CCCNC(=N)N)NC(=O)[C@H](Cc2c[nH]c3ccccc23)NC(=O)[C@H](Cc2ccc(O)cc2)NC(=O)[C@H](CC(N)=O)NC1=O (Ac-[Nle]PRF[R8]NYWRLL[S5]-NH2; staple 5-12) | n
CC(=O)N[C@@H](CCC(N)=O)C(=O)N[C@H](C(=O)N[C@@H](Cc1ccccc1)C(=O)N[C@]1(C)CCCCCCC=CCCC[C@@](C)(C(=O)N[C@@H](CO)C(N)=O)NC(=O)[C@H](CC(C)C)NC(=O)[C@H](CCC(N)=O)NC(=O)[C@H](CO)NC(=O)[C@H](Cc2c[nH]c3ccccc23)NC(=O)[C@H](Cc2c[nH]c3ccccc23)NC(=O)[C@H](Cc2c[nH]cn2)NC1=O)[C@@H](C)O (Ac-QTF[R8]HWWSQL[S5]S-NH2; staple 4-11) | n
CC(=O)N[C@H](C(=O)N[C@@H](CO)C(=O)N[C@@H](Cc1ccccc1)C(=O)N[C@]1(C)CCCCCCCCCCC[C@@](C)(C(=O)N2CCC[C@H]2C(N)=O)NC(=O)[C@H](CC(C)C)NC(=O)[C@H](CC(C)C)NC(=O)[C@H](CC(N)=O)NC(=O)[C@H](Cc2c[nH]c3ccccc23)NC(=O)[C@H](Cc2ccc(O)cc2)NC(=O)[C@H](CCC(N)=O)NC1=O)[C@@H](C)O | n

Input: Can CC(=O)N[C@@H](CCC(N)=O)C(=O)N[C@@H](CO)C(=O)N[C@]1(C)CCCC=CCCCC2(CCCC=CCCC[C@@](C)(C(=O)N[C@@H](CC(C)C)C(=O)N[C@@H](CC(C)C)C(=O)NC(C)(C)C(=O)N[C@@H](CCC(N)=O)C(=O)N[C@@H](CC(N)=O)C(N)=O)NC(=O)[C@H](Cc3c[nH]c4ccccc34)NC(=O)[C@H](CC(C)C)NC(=O)[C@H](CC(N)=O)NC2=O)NC(=O)[C@H](Cc2ccccc2)NC(=O)[C@H]([C@@H](C)O)NC(=O)[C@H](CCC(N)=O)NC1=O (stereo partly drawn) be said to have helicity at or above 60%?
Output: n

Input: Record CC(=O)N[C@@H](CCC(N)=O)C(=O)N[C@@H](CO)C(=O)N[C@@]1(C)CCCCCCCCC2(CCCCCCCCCCC[C@@](C)(C(=O)N[C@@H](CCC(N)=O)C(=O)N[C@@H](CC(N)=O)C(N)=O)NC(=O)[C@H](CC(C)C)NC(=O)[C@H](CC(C)C)NC(=O)[C@H](CCCNC(=N)N)NC(=O)[C@H](Cc3c[nH]c4ccccc34)NC(=O)[C@H](CC(C)C)NC(=O)[C@H](CC(N)=O)NC2=O)NC(=O)[C@H](Cc2ccccc2)NC(=O)[C@H]([C@@H](C)O)NC(=O)[C@H](CCC(N)=O)NC1=O (stereo partly drawn) ; criterion: helicity no lower than 60%. Met?
Output: y

Input: Could you tell me if the measured helicity of CC(=O)N[C@@H](CCC(N)=O)C(=O)N[C@@H](CO)C(=O)N[C@@H](CCC(N)=O)C(=O)N[C@@H](CCC(N)=O)C(=O)N[C@H](C(=O)N[C@@H](Cc1ccccc1)C(=O)N[C@@H]1CCCCCCC=CCCC[C@@H](C(=O)N[C@@H](CCC(N)=O)C(=O)N[C@@H](CC(N)=O)C(N)=O)NC(=O)[C@H](CC(C)C)NC(=O)[C@H](CC(C)C)NC(=O)[C@H](CCCNC(=N)N)NC(=O)[C@H](Cc2c[nH]c3ccccc23)NC(=O)[C@H](CC(C)C)NC(=O)[C@H](CC(N)=O)NC1=O)[C@@H](C)O reaches 60% or more?
Output: n
